assay: yeast display, Sf9 membrane polyspecificity reagent, FACS + sequencing; frameworks hold sequencing errors
assay.endpoint: polyreactivity (PSR sort gate)

Solved cases below.
Query: polyreactivity (PSR sort gate); subject: QVQLVESGGGLVQAGGSLRLSCAASGFIFQGYVMGRYRQAPGKVREFVAAISRSGGTTFYADSVKGRFTISRDNAKNPVYLQMNSLKPEDTAVYYCNRAPLGRPGYDYWGPGTQVTVSS
high polyreactivity

Query: polyreactivity (PSR sort gate); subject: QVQLVESGGGLVQAGGSLRLSCAASGRIFSRNAMGWYRQAPGKERELVAGISARGGRTYYADSVKGRFTISRDNAKNTVYLQMNSLKPEDTAVYYCNARTGYQDGTYGNDYWGQGTQVTVSS
high polyreactivity

Query: polyreactivity (PSR sort gate); subject: QVQLVESGGGLVQAGGSLRLSCAASGIIFHFNDMGWYRQAPGKERELVAAIDSTGSTNYADSVKGRFTISRDNAKNTVYLQMNSLKPEDTAVYYCAVLNHRVDSVLTRYYYWGQGTQVTVSS
low polyreactivity

Query: polyreactivity (PSR sort gate); subject: QVQLVESGGGLVQAGGSLRLSCAASGRIFFATAMGWYRQAPGNERELVAAITSDGSTDYADSVKGRFTISRDNAKNTVYLQMNSLKPEDTAVYDCNADAYYRYGITMDYWGQGTQVTVSS
low polyreactivity

// below: polyreactivity (PSR sort gate) requested for another sequence
Query: polyreactivity (PSR sort gate); subject: QVQLVESGGGLVQAGGSLRLSSADSGRTFYGNAMGWYRQSPGKERELVAAISKRGGNTYYADSVKWRFTISRDNAKNTVYLQMNSLKPEDTAVYYCARQARTPSSWYIYDSWGQGTQVTVSS
high polyreactivity

* * *

test: yeast display, Sf9 membrane polyspecificity reagent, FACS + sequencing; frameworks hold sequencing errors
assay.endpoint: polyreactivity (PSR sort gate)

Solved cases below.
Query: polyreactivity (PSR sort gate); subject: QVQLLESGGGLVQAGGSLRLSCAASGGTFYSYAMGWYRQAPGKEREFVATITRRSGSTYYADSVKGRFTISRDNAKNTVYLQMNSLKPEDNAVYYCAATKYKLLFIHFRYDYWGQGTQVTVSS
high polyreactivity

Query: polyreactivity (PSR sort gate); subject: QVQRVESGGVLVQAGGSLRLSCAASGITFYVYAMGWYRQAPGKERELVASITRSVGITSYADSVKGRFTISRDNSKNTVYLQMNSLKQEDSAVYYCAAERSNLHYNIQGVGYWGQGTQVTVSS
low polyreactivity

Query: polyreactivity (PSR sort gate); subject: QVQLVESGGGLVQAGGSLRLSCAASGRTFYGNAMGWYRQAPGKERELVAAINRDGGTYYADSVKGRFTISRDNAKNTVYLQMNSLKPEDTAVYYCNAVKRGIRYGYWGQGTQVTVSS
high polyreactivity

Query: polyreactivity (PSR sort gate); subject: QVQLVETGGGLVQAGGSLRLSCAASGRTFARYAMGWYRQAPGTERELVAAISWGGTRTYYADSVKGRFTISRDNAKNTVYLQMNSLKPEDTAVYYCAATYLYRDQPKWGGFAYTYGLWGQGTQVTVSS
high polyreactivity

Query: polyreactivity (PSR sort gate); subject: QVQLVESGGGLVQAGGSLRLSCAASGSTFVYMGGYRQAPGKEREFVAITFSGGRTYADSVKGRFTISRDNAKNTVYLQMNSLKPEDTAVYYCNKGDDFYSTYSYDYWGQGTQVTVSS
low polyreactivity

Query: polyreactivity (PSR sort gate); subject: QVQLVESGGGLVQAGGSLRLSCAASGRIIYPYVMGWYRQAHGKERELVAAITRSGDRTYYADSVKGRFTISRDNAKNTVYLQMNSLKPEDTAVYYCAATNVRGVYYWGQGTQVTVSS
high polyreactivity

// below: polyreactivity (PSR sort gate) requested for another sequence
Query: polyreactivity (PSR sort gate); subject: QVQLVESGGGLVQAGGSLRLSCAASGRTFFFNAMGWYRQAPGIERELVATISWNGGDTYYADSVKGRFTISRDNAKNTVYLQMNSLKPEDTAVYDCNARVLWGQGTQVTVSS
high polyreactivity
